Biological target: human Peroxisome Proliferator-activated Receptor delta (PPARd), PPARD (gene 5467) (UniProt Q03181)
Sequence (Q03181 whole entry, looked up): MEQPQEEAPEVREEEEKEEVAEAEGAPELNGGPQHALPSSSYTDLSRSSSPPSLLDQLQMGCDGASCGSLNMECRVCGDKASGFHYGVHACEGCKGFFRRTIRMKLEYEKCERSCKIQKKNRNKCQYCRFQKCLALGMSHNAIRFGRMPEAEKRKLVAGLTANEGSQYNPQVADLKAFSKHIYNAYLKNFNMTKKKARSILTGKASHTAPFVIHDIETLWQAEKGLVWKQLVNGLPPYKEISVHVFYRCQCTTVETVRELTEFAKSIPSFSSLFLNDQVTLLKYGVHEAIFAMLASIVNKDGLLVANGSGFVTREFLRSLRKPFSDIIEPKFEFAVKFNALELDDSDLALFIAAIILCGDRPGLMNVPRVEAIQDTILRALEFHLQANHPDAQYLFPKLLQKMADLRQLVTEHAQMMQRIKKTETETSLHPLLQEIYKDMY
Assay: ATG_PPARd_TRANS: Attagene TRANS-FACTORIAL HepG2 Assay for human Peroxisome Proliferator-activated Receptor delta (PPARd) (AID 2283002)
Inconclusive results are not listed. The source made the active and inactive calls. Rule for the calls: active = hit-call score of the fitted dose curve at least 0.9, where 1 is the maximum; inconclusive = response in the unintended direction; inactive = score below 0.9.
Classes used: yes for active, no for inactive

> print(dat)
                                    molecule  group
 1                O=C(O)COc1cc(Cl)c(Cl)cc1Cl     no
 2          CCOP(=S)(OCC)O/N=C(\C#N)c1ccccc1     no
 3  CC(C)(COCC1CO1)COCC1CO1 (stereo unspecified)     no
 4                                   ClCCCCl     no
 5              CCOP(=S)(OCC)Oc1ccc(Cl)cc1Cl     no
 6                   Oc1ccc(Cc2ccc(O)cc2)cc1     no
 7        O=S(=O)(Oc1ccc(Cl)cc1)c1ccc(Cl)cc1     no
 8        CC(C)CC(C)(c1ccc(O)cc1)c1ccc(O)cc1     no
 9  CC1(C)[C@H](C(=O)O[C@H](C#N)c2cccc(Oc3ccccc3)c2)[C@@H]1/C=C(\Cl)C(F)(F)F     no
10  CCOCn1c(-c2ccc(Cl)cc2)c(C#N)c(Br)c1C(F)(F)F     no
11  CN(C)[C@@H]1C(=O)C(C(N)=O)=C(O)[C@@]2(O)C(=O)C3=C(O)c4c(O)ccc(Cl)c4[C@@](C)(O)[C@H]3C[C@@H]12     no
12         Cc1cc(-c2cc(C)c(N)c(C)c2)cc(C)c1N     no
13                                 Nc1cccnc1     no
14  Cc1cc(Cl)ccc1OC(C)C(=O)O (stereo unspecified)     no
15  CC(C)(c1ccccc1)c1cc(-n2nc3ccccc3n2)c(O)c(C(C)(C)c2ccccc2)c1     no
16  C#CCOC(=O)/C=C(C)/C=C/CC(C)CCCC(C)C (stereo unspecified)     no
17     Cc1ccccc1OP(=O)(Oc1ccccc1C)Oc1ccccc1C     no
18  CC(C)(c1ccc(O)c(-c2ccccc2)c1)c1ccc(O)c(-c2ccccc2)c1     no
19             Cc1cccc(N=Nc2ccc(N(C)C)cc2)c1     no
20  COC(F)(C(F)(F)C(F)(F)F)C(F)(C(F)(F)F)C(F)(F)F (stereo unspecified)     no
21          CC1CC(=O)O1 (stereo unspecified)     no
22       O=C(Nc1ccc(Br)cc1)c1cc(Br)cc(Br)c1O     no
23  CCCCCCCCCCCCCCC(Br)C(=O)O (stereo unspecified)    yes
24  Cc1ccc(OP(=O)(Oc2ccc(C)cc2C)Oc2ccc(C)cc2C)c(C)c1     no
25                   CC1(C)COP(Oc2ccccc2)OC1     no
26               C=CCOC(F)(C(F)(F)F)C(F)(F)F     no
27  O=C(NC(=O)c1c(F)cccc1F)Nc1cc(Cl)c(Oc2ncc(C(F)(F)F)cc2Cl)c(Cl)c1     no
28                 c1ccc2sc(SNC3CCCCC3)nc2c1     no
29  Cc1cccc(OP(=O)(Oc2cccc(C)c2)Oc2cccc(C)c2)c1     no
30                               CCCCOC(C)=O     no
31                 Clc1cc(C(Cl)(Cl)Cl)cnc1Cl     no
